- tested target: T1, human DLL3-His (human, UniProt Q9NYJ7 27-492)
- T1 construct: also called hDLL3
- T1 sequence: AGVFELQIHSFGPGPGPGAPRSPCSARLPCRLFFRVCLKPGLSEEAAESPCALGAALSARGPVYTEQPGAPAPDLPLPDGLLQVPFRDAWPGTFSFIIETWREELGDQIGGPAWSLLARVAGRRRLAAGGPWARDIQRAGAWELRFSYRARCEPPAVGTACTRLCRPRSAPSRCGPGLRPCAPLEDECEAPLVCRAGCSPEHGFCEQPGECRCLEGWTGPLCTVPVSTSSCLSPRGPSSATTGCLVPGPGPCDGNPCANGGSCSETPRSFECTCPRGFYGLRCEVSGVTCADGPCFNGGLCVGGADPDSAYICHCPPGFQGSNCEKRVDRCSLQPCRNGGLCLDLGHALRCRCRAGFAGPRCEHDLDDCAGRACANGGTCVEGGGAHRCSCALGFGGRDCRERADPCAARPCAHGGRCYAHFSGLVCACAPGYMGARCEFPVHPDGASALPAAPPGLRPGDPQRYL
- protocol notes: SPR (Biacore 8K), 37 C, antibody captured on anti-human Fc, DLL3-His 0.411-300 nM injected, 1:1 fit
Please respond with reported kon for every item in the list.
Numeric only. Scale: M⁻¹ s⁻¹

Briefly, kon measured for humanized anti-DLL3 antibody h5E7 (antibody, V domains shown, Expressed as IgG1 mAb: human IgG1 CH1-CH2-CH3 and human constant kappa) VH: QVQLVQSGAEVKKPGASVKVSCKASGFNIKDDYIHWVRQAPGQGLEWMGWIDSENGDTEYASKFQGRVTITADTSANTAYMELSSLRSEDTAVYYCATSSYYSYDLFVYWGQGTLVTVSS VL: DVQMTQSPSSLSASVGDRVTITCKSSQSLLHSNGKTYLNWLQQKPGQAPKLLLYLVSKLESGVPSRFSGSGSGTDYTLTISSLQPEDFATYYCLQTTHLYTFGQGTKLEIK : 799000

Sure, the documented kon for humanized anti-DLL3 antibody h5E7-YD-B5 (antibody, V domains shown, Expressed as IgG1 mAb: human IgG1 CH1-CH2-CH3 and human constant kappa; also called B5 variant) VH: QVQLVQSGAEVKKPGASVKVSCKASGFNIKDDYIHWVRQAPGQGLEWMGWIDSENGDTEYASKFQGRVTITADTSANTAYMELSSLRSEDTAVYYCATSTYWSYDLFVYWGQGTLVTVSS VL: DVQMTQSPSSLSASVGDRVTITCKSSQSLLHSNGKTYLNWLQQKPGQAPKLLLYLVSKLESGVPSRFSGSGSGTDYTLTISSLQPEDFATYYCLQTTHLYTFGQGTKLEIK is 474000
